- TARGET_ENTITY: CYP2D6 (Homo sapiens)
- Sequence (P10635 whole entry): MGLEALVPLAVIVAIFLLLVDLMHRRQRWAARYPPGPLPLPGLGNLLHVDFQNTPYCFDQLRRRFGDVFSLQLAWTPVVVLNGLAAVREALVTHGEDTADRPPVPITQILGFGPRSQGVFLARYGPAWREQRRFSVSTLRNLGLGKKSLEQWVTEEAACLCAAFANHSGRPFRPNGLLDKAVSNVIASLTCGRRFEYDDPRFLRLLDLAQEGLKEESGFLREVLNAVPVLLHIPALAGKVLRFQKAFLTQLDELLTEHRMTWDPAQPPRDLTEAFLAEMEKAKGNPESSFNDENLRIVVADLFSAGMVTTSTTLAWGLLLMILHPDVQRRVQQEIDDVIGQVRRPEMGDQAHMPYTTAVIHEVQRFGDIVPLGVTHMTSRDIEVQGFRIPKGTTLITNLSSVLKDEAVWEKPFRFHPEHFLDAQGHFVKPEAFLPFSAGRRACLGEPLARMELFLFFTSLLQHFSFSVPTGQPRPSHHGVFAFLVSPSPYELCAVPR
- EXPERIMENT_NOTES: Inhibition of human CYP2D6 at 10 uM incubated for 20 mins in presence of NADPH regenerating system by luminescence assay relative to control
- Format: ADME
RECORDED_METRIC: inhibition at 20 min, 10 µM (%)
Form entry: value (%) — number only.

Task: Please indicate inhibition at 20 min, 10 µM recorded for CCCn1c(=O)c2c3c(sc2n2cnnc12)CC(C(C)(C)C)CC3 (stereo in doubt)
Result: 1.26

----------
- TARGET_ENTITY: CYP2C19 (Homo sapiens)
- Sequence (P33261 whole entry): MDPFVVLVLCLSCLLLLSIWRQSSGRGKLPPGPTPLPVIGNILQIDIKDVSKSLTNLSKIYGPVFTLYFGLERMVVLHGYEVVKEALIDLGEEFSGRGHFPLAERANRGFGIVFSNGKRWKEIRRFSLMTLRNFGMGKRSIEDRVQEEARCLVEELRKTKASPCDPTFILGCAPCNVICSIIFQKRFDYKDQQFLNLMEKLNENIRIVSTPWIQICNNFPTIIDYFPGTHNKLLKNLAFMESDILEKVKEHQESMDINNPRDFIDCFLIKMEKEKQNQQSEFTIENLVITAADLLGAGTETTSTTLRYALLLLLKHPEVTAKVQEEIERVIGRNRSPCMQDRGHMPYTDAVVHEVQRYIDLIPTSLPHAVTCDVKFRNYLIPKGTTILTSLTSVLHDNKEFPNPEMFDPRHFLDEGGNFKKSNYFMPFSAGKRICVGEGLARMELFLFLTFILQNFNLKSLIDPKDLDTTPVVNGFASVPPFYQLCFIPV
- EXPERIMENT_NOTES: Inhibition of human CYP2C19 at 10 uM incubated for 20 mins in presence of NADPH regenerating system by luminescence assay relative to control
- Assay type: ADME
Below, each entry is listed with its recorded inhibition at 20 min, 10 µM.

CN(C)CCC=C1c2ccccc2CCc2ccccc21 [AMITRIPTYLINE]; 90.2%

Now for the molecule whose inhibition at 20 min, 10 µM we want.
Task: Please indicate inhibition at 20 min, 10 µM recorded for CCCn1c(=O)c2c3c(sc2n2cnnc12)CC(C(C)(C)C)CC3 (stereo in doubt)
Result: 7.19%

----------
Below, each entry is listed with its recorded selectivity ratio.
- EXPERIMENT_NOTES: Selectivity index, ratio of CC50 for cytotoxicity against human H1-HeLa cells to EC50 for antiviral activity against Human rhinovirus A21 infected in human H1-HeLa cells
- Assay type: toxicity, cell-based
- DETAILS: H1-HeLa cells, read-out: Ratio CC50/EC50
Please give the numeric answer without any surrounding text.

Solved entries (count: 2):
CC(C)(C)C1CCc2c(sc3c2c(=O)n(-c2ccccc2)c2nncn32)C1 (stereo not given); 3.6
Cc1cc(CCCOc2c(C)cc(-c3noc(C(F)(F)F)n3)cc2C)on1; 161

Now for the compound whose selectivity ratio we want.
Task: Please indicate selectivity ratio recorded for CC(C)(C)C1CCc2c(sc3c2c(=O)n(C2CC2)c2nncn32)C1 (stereo not given)
Result: 4.6

----------
- EXPERIMENT_NOTES: AUClast in Sprague-Dawley rat at 10 mg/kg, po by LC/MS/MS analysis
- Assay type: ADME, organism-based
- Set-up: time 0 - last, dose 10 mg/kg, route po
- DETAILS: in vivo
RECORDED_METRIC: AUC(0-t) (ng·h/mL)
Form entry: value (ng·h/mL) — number only.

Task: Please indicate AUC(0-t) recorded for CCCn1c(=O)c2c3c(sc2n2cnnc12)CC(C(C)(C)C)CC3 (stereo in doubt)
Result: 180

----------
- EXPERIMENT_NOTES: Selectivity index, ratio of CC50 for cytotoxicity against human H1-HeLa cells to EC50 for antiviral activity against Human rhinovirus A71 infected in human H1-HeLa cells
- Type: toxicity, cell-based
- DETAILS: H1-HeLa cells, read-out: Ratio CC50/EC50
Below, each entry is listed with its recorded selectivity ratio.

Solved entries (count: 4):
CCn1c(=O)c2c3c(sc2n2cnnc12)CC(C(C)(C)C)CC3 (stereo not given); > 27
Cn1c(=O)c2c3c(sc2n2cnnc12)CC(C(C)(C)C)CC3 (stereo not given); > 4.3
CCCCn1c(=O)c2c3c(sc2n2cnnc12)CC(C(C)(C)C)CC3 (stereo not given); > 50
CC(C)(C)C1CCc2c(sc3c2c(=O)n(C2CCCC2)c2nncn32)C1 (stereo not given); > 8.2

Now for the compound whose selectivity ratio we want.
Task: Please indicate selectivity ratio recorded for CC(C)Cn1c(=O)c2c3c(sc2n2cnnc12)CC(C(C)(C)C)CC3 (stereo not given)
Result: > 45.4
